Where a name gives a salt, the structure may show the parent alone.
parameter: melting point

molecule: Cl.Cn1c(=O)c(-c2ccccc2Cl)cc2cnc(NC3(CO)CCCCC3)nc21
meas.value: 185 to 188.6 °C

molecule: CCCS(=O)(=O)N1CCC(Nc2ncc3cc(-c4ccccc4F)c(=O)n(C)c3n2)CC1.Cl
meas.value: 206 to 209 °C

molecule: O=CO[C@H]1CC[C@H](Nc2ncc3cc(-c4ccccc4Cl)c(=O)[nH]c3n2)CC1
meas.value: > 300 °C

molecule: Cl.Cn1c(=O)c(-c2ccccc2Cl)cc2cnc(NC3CCN(C(N)=O)CC3)nc21
meas.value: 192 to 202 °C

molecule: Cl.Cn1c(=O)c(-c2ccccc2Cl)cc2cnc(NC3CCN(CC#N)CC3)nc21
meas.value: 228.3 to 228.9 °C

molecule: CCn1c(=O)c(-c2ccccc2Cl)cc2cnc(NC3CCOCC3)nc21.Cl
meas.value: 185.3 to 190.1 °C

molecule: Cl.Cn1c(=O)c(-c2ccccc2Cl)cc2cnc(NC3CCN(CCS(C)(=O)=O)CC3)nc21
meas.value: 204.6 to 205.6 °C

molecule: Cc1ccccc1-c1cc2cnc(NC3CCN(S(=O)(=O)CC(F)(F)F)CC3)nc2n(C)c1=O.Cl
meas.value: 200 to 204 °C

molecule: Cn1c(=O)c(-c2ccccc2Cl)cc2cnc(N[C@H]3CC[C@H](O)CC3)nc21 (as salt: salt)
meas.value: 163.4 to 171.1 °C

molecule: CC1C(=O)C(c2ccccc2Cl)=Cc2cnc(NOCc3ccccc3)nc21.Cl (centres unmarked)
meas.value: 199.2 to 199.5 °C

molecule: Cl.O=c1c(-c2ccccc2Cl)cc2cnc(NC3CCS(=O)(=O)CC3)nc2n1CCO
meas.value: 182 to 186 °C

molecule: CCS(=O)(=O)N1CCC(Nc2ncc3cc(-c4ccccc4OC)c(=O)n(C)c3n2)CC1.Cl
meas.value: 120.3 to 139.7 °C

molecule: CCS(=O)(=O)N1CCC(Nc2ncc3cc(-c4ccccc4F)c(=O)n(C)c3n2)CC1.Cl
meas.value: 192.5 to 195 °C

molecule: N[C@H]1CC[C@H](Nc2ncc3cc(-c4ccccc4Cl)c(=O)[nH]c3n2)CC1 (as salt: salt)
meas.value: > 300 °C

molecule: CC(CCO)Nc1ncc2cc(-c3ccccc3Cl)c(=O)n(C)c2n1.Cl (centres unmarked)
meas.value: 180.7 to 189.2 °C

molecule: Cl.O=c1[nH]c2nc(NC3(CO)CCCC3)ncc2cc1-c1ccccc1Cl
meas.value: 290 to 293 °C

molecule: COc1ccccc1-c1cc2cnc(NC3CCN(S(=O)(=O)CC(F)(F)F)CC3)nc2n(C)c1=O.Cl
meas.value: 194.7 to 196 °C

molecule: CNC(=O)CN1CCC(Nc2ncc3cc(-c4ccccc4Cl)c(=O)n(C)c3n2)CC1.Cl
meas.value: 64 to 102.6 °C

molecule: CCCS(=O)(=O)N1CCC(Nc2ncc3cc(-c4ccccc4C)c(=O)n(C)c3n2)CC1.Cl
meas.value: 211.7 to 212.6 °C

molecule: CC(=O)OC1CCC(Nc2ncc3cc(-c4ccccc4Cl)c(=O)n(C)c3n2)CC1 (centres unmarked)
meas.value: 200.9 to 201.2 °C

molecule: Cl.O=C1CCC(Nc2ncc3cc(-c4ccccc4Cl)c(=O)n(-c4ccc(F)cc4)c3n2)CC1
meas.value: 242.7 to 243.6 °C

molecule: CCOC(=O)C1CCC(Nc2ncc3cc(-c4ccccc4Cl)c(=O)n(C)c3n2)CC1.Cl (centres unmarked)
meas.value: 192.1 to 198.3 °C

molecule: Cl.Cn1c(=O)c(-c2ccccc2Cl)cc2cnc(N[C@H]3CC[C@H](OC(N)=O)CC3)nc21
meas.value: 234.7 to 235.4 °C

molecule: Cl.O=c1c(-c2ccccc2Cl)cc2cnc(NC3CCOCC3)nc2n1-c1ccc(F)cc1
meas.value: 150 to 154 °C

molecule: Cl.O=c1[nH]c2nc(N[C@H]3CC[C@H](O)CC3)ncc2cc1-c1ccccc1Cl
meas.value: 191.1 to 194.3 °C

molecule: Cc1ccccc1-c1cc2cnc(NC3CCOCC3)nc2n(C)c1=O.Cl
meas.value: 222.9 to 225.9 °C

molecule: Cl.N#CCn1c(=O)c(-c2ccccc2Cl)cc2cnc(N[C@H]3CC[C@H](O)CC3)nc21
meas.value: 232.1 to 233.4 °C

molecule: CS(=O)(=O)N[C@H]1CC[C@H](Nc2ncc3c(n2)=NC(=O)C(c2ccccc2Cl)C=3)CC1 (some centres unmarked) (as salt: hydrochloric acid salt)
meas.value: > 300 °C

molecule: Cl.Cn1c(=O)c(-c2ccccc2Cl)cc2cnc(NC3CCC4(CC3)OCC(C)(CO)CO4)nc21 (centres unmarked)
meas.value: 180.3 to 181.2 °C

molecule: Cl.Cn1c(=O)c(-c2ccccc2Cl)cc2cnc(NC3CC(C)(C)NC(C)(C)C3)nc21
meas.value: > 300 °C

molecule: Cl.O=c1c(-c2ccccc2Cl)cc2cnc(NC3CCOCC3)nc2n1CCO
meas.value: 217 to 220 °C

molecule: CS(=O)(=O)N1CCC(Nc2ncc3cc(-c4ccccc4Cl)c(=O)n(C4CC4)c3n2)CC1 (as salt: hydrochloride)
meas.value: 128 to 141.5 °C

molecule: Cl.Cn1c(=O)c(-c2ccccc2Cl)cc2cnc(NN3CCN(CCO)CC3)nc21
meas.value: 274.4 to 274.8 °C

molecule: Cl.Cn1c(=O)c(-c2ccccc2Cl)cc2cnc(NC3CCS(=O)(=O)C3)nc21 (centres unmarked)
meas.value: 256 to 260 °C

molecule: O=c1c(-c2ccccc2Cl)cc2cnc(N[C@H]3CC[C@H](O)CC3)nc2n1Cc1ccccc1 (as salt: HCl)
meas.value: 202 to 206 °C

====

Structures can show the parent of a compound that is named as a salt.
melting point overview
parameter: melting point

compound: CO[C@H]1CC[C@H](Nc2ncc3cc(-c4ccccc4Cl)c(=O)n(C)c3n2)CC1.Cl
parameter: melting point
meas.value: 218.2 to 218.5 °C
--
compound: CS(=O)(=O)N1CCC(Nc2ncc3cc(-c4ccccc4Cl)c(=O)n(N)c3n2)CC1.Cl
parameter: melting point
meas.value: 180.7 to 213.2 °C
--
compound: Cc1ccccc1-c1cc2cnc(NC3CCN(S(C)(=O)=O)CC3)nc2n(C)c1=O.Cl
parameter: melting point
meas.value: 221.4 to 221.8 °C
--
compound: Cl.O=c1c(-c2ccccc2Cl)cc2cnc(N[C@H]3CC[C@H](O)CC3)nc2n1C1CC1
parameter: melting point
meas.value: 241.7 to 242.3 °C
--
compound: CCCS(=O)(=O)N1CCC(Nc2ncc3cc(-c4ccccc4Cl)c(=O)n(C)c3n2)CC1.Cl
parameter: melting point
meas.value: 193.3 to 194.1 °C
--
compound: CC(C)(CO)Nc1ncc2cc(-c3ccccc3Cl)c(=O)n(N)c2n1.Cl
parameter: melting point
meas.value: 145 to 163 °C
--
compound: Cl.Nn1c(=O)c(-c2ccccc2Cl)cc2cnc(NC3CCS(=O)(=O)CC3)nc21
parameter: melting point
meas.value: 240 to 243 °C
--
compound: O=c1[nH]c2nc(N[C@H]3CC[C@H](O)CC3)ncc2cc1-c1ccccc1Cl (as salt: hydrochloride) [Example 11]
parameter: melting point
meas.value: 191.1 to 194.3 °C
--
compound: COc1ccccc1-c1cc2cnc(NC3CCN(S(=O)(=O)C(F)(F)F)CC3)nc2n(C)c1=O.Cl
parameter: melting point
meas.value: 140.8 to 147.3 °C
